Reported IC50 values follow for various compounds
Test system: Plasmodium falciparum
Method Notes: Antimalarial activity against erythrocytic stage of chloroquine sensitive Plasmodium falciparum 3D7 assessed as inhibition of parasitemia after 48 hrs by Giemsa staining based microscopic analysis
Format: functional, organism-based
Condition Notes: 3D7, 48 h
Measured Metric: IC50 (mg/L)

INSERT INTO measurements (structure_notation, system_name, output_unit, value) VALUES
  ('COc1cc(O)c(C(=O)/C=C/c2ccc(OC)c(OCc3cn(-c4ccc(F)c(Cl)c4)nn3)c2)c(OC)c1', 'Plasmodium falciparum', 'mg/L', 7.52),
  ('COc1cc(OC)c2c(=O)cc(-c3ccc(OCc4cn(-c5ccc(F)c(Cl)c5)nn4)c(OCc4cn(-c5ccc(F)c(Cl)c5)nn4)c3)oc2c1', 'Plasmodium falciparum', 'mg/L', 10.4),
  ('COc1cc(O)c(C(=O)/C=C/c2ccc(OCc3cn(-c4ccc(F)cc4Cl)nn3)c(OC)c2)c(OC)c1', 'Plasmodium falciparum', 'mg/L', 6.27),
  ('COc1cc(O)c(C(=O)/C=C/c2ccc(OCc3cn(-c4ccc(F)c(Cl)c4)nn3)c(OC)c2)c(OC)c1', 'Plasmodium falciparum', 'mg/L', 2.74);

----------
Tested on: Aspergillus niger
Method Notes: Antifungal activity against Aspergillus niger clinical isolate after 18 to 24 hrs by micro-dilution method
Type: functional
Measured Metric: MIC (µg/mL)

INSERT INTO results (structure_notation, measured_metric, output_unit, comparison_sign, value) VALUES
  ('COc1cc(O)c(C(=O)/C=C/c2ccc(OCc3cn(-c4ccc(Cl)cc4)nn3)c(OC)c2)c(OC)c1', 'MIC', 'µg/mL', '=', 25),
  ('COc1cc(OC)c2c(=O)cc(-c3ccc(OCc4cn(-c5ccccc5Cl)nn4)c(OCc4cn(-c5ccccc5Cl)nn4)c3)oc2c1', 'MIC', 'µg/mL', '=', 12.5),
  ('COc1cc(OC)c2c(=O)cc(-c3ccc(OCc4cn(-c5ccc(Cl)cc5)nn4)c(OCc4cn(-c5ccc(Cl)cc5)nn4)c3)oc2c1', 'MIC', 'µg/mL', '>', 100),
  ('COc1cc(O)c(C(=O)/C=C/c2ccc(OCc3cn(-c4ccc(F)cc4Cl)nn3)c(OC)c2)c(OC)c1', 'MIC', 'µg/mL', '=', 100);

----------
System: Plasmodium falciparum
Method Notes: Antimalarial activity against erythrocytic stage of chloroquine sensitive Plasmodium falciparum 3D7 assessed as inhibition of parasitemia after 48 hrs by Giemsa staining based microscopic analysis
Format: functional, organism-based
Condition Notes: 3D7, 48 h
IC50 strictly under 5 µg/mL means MET; at 5 µg/mL or over means NOT MET.

INSERT INTO results (structure_notation, label_value) VALUES
  ('COc1cc(O)c(C(=O)/C=C/c2ccc(OCc3cn(-c4ccccc4Cl)nn3)c(OC)c2)c(OC)c1', 'NOT MET'),
  ('COc1cc(OC)c2c(=O)cc(-c3ccc(OCc4cn(-c5ccc(Cl)cc5)nn4)c(OCc4cn(-c5ccc(Cl)cc5)nn4)c3)oc2c1', 'NOT MET'),
  ('COc1cc(O)c(C(=O)/C=C/c2ccc(OCc3cn(-c4ccccc4Cl)nn3)c(OCc3cn(-c4ccccc4Cl)nn3)c2)c(OC)c1', 'NOT MET'),
  ('COc1cc(OC)c2c(=O)cc(-c3ccc(OCc4cn(-c5ccc(F)c(Cl)c5)nn4)c(OC)c3)oc2c1', 'MET'),
  ('COc1cc(O)c(C(=O)/C=C/c2ccc(OC)c(OCc3cn(-c4ccc(F)cc4F)nn3)c2)c(OC)c1', 'NOT MET'),
  ('COc1cc(OC)c2c(=O)cc(-c3ccc(OCc4cn(-c5ccc(Cl)cc5)nn4)c(OC)c3)oc2c1', 'NOT MET'),
  ('COc1cc(OC)c2c(=O)cc(-c3ccc(OCc4cn(-c5ccc(F)cc5Cl)nn4)c(OCc4cn(-c5ccc(F)cc5Cl)nn4)c3)oc2c1', 'NOT MET'),
  ('COc1cc(O)c(C(=O)/C=C/c2ccc(OCc3cn(-c4ccc(F)cc4Cl)nn3)c(OCc3cn(-c4ccc(F)cc4Cl)nn3)c2)c(OC)c1', 'NOT MET'),
  ('COc1cc(OC)c2c(=O)cc(-c3ccc(OCc4cn(-c5ccc(F)cc5Cl)nn4)c(OC)c3)oc2c1', 'MET');

----------
System: Plasmodium falciparum
Method Notes: Antimalarial activity against erythrocytic stage of chloroquine sensitive Plasmodium falciparum 3D7 assessed as inhibition of parasitemia after 48 hrs by Giemsa staining based microscopic analysis
Assay type: functional, organism-based
Condition Notes: 3D7, 48 h
log10(IC50) listing for selected compounds.
Measured Metric: log10(IC50) (log10 of the value in µg/mL)

INSERT INTO assay_data (structure_notation, value) VALUES
  ('COc1cc(OC)c2c(=O)cc(-c3ccc(OCc4cn(-c5ccc(F)cc5F)nn4)c(OCc4cn(-c5ccc(F)cc5F)nn4)c3)oc2c1', 0.97),
  ('COc1cc(O)c(C(=O)/C=C/c2ccc(OC)c(OCc3cn(-c4ccccc4Cl)nn3)c2)c(OC)c1', 0.90),
  ('COc1cc(OC)c2c(=O)cc(-c3ccc(OCc4cn(-c5ccccc5Cl)nn4)c(OCc4cn(-c5ccccc5Cl)nn4)c3)oc2c1', 0.95),
  ('COc1cc(OC)c2c(=O)cc(-c3ccc(OCc4cn(-c5ccc(F)cc5F)nn4)c(OC)c3)oc2c1', 0.68),
  ('C[C@@H]1CC[C@H]2[C@@H](C)C(=O)O[C@@H]3O[C@@]4(C)CC[C@@H]1[C@]32OO4', -2.95),
  ('COc1cc(O)c(C(=O)/C=C/c2ccc(OCc3cn(-c4ccc(F)c(Cl)c4)nn3)c(OCc3cn(-c4ccc(F)c(Cl)c4)nn3)c2)c(OC)c1', 1.04),
  ('COc1cc(O)c(C(=O)/C=C/c2ccc(OCc3cn(-c4ccc(F)cc4F)nn3)c(OCc3cn(-c4ccc(F)cc4F)nn3)c2)c(OC)c1', 0.95);

----------
Consider the following compounds and their measured MIC readings.
System: Aspergillus niger
Method Notes: Antifungal activity against Aspergillus niger clinical isolate after 18 to 24 hrs by micro-dilution method
Format: functional
Measured Metric: MIC

INSERT INTO results (structure_notation, value) VALUES
  ('COc1cc(O)c(C(=O)/C=C/c2ccc(OC)c(OCc3cn(-c4ccc(F)cc4Cl)nn3)c2)c(OC)c1', '> 100 µg/mL'),
  ('COc1cc(O)c(C(=O)/C=C/c2ccc(OCc3cn(-c4ccccc4Cl)nn3)c(OCc3cn(-c4ccccc4Cl)nn3)c2)c(OC)c1', '> 100 µg/mL'),
  ('COc1cc(O)c(C(=O)/C=C/c2ccc(OC)c(OCc3cn(-c4ccc(F)c(Cl)c4)nn3)c2)c(OC)c1', '> 100 µg/mL'),
  ('COc1cc(OC)c2c(=O)cc(-c3ccc(OCc4cn(-c5ccc(F)c(Cl)c5)nn4)c(OCc4cn(-c5ccc(F)c(Cl)c5)nn4)c3)oc2c1', '100 µg/mL'),
  ('COc1cc(OC)c2c(=O)cc(-c3ccc(OCc4cn(-c5ccc(F)cc5F)nn4)c(OCc4cn(-c5ccc(F)cc5F)nn4)c3)oc2c1', '> 100 µg/mL'),
  ('COc1cc(O)c(C(=O)/C=C/c2ccc(OCc3cn(-c4ccc(F)cc4F)nn3)c(OC)c2)c(OC)c1', '> 100 µg/mL');

----------
System: Pseudomonas aeruginosa
Method Notes: Antibacterial activity against Pseudomonas aeruginosa […] after 18 to 24 hrs by micro-dilution method
Format: functional
Measured Metric: MIC (µg/mL)

INSERT INTO results (structure_notation, output_unit, comparison_sign, value) VALUES
  ('COc1cc(O)c(C(=O)/C=C/c2ccc(OC)c(OCc3cn(-c4ccc(F)cc4F)nn3)c2)c(OC)c1', 'µg/mL', '>', 100),
  ('COc1cc(O)c(C(=O)/C=C/c2ccc(OCc3cn(-c4ccc(F)cc4F)nn3)c(OC)c2)c(OC)c1', 'µg/mL', '=', 12.5),
  ('COc1cc(O)c(C(=O)/C=C/c2ccc(OCc3cn(-c4ccc(Cl)cc4)nn3)c(OC)c2)c(OC)c1', 'µg/mL', '>', 100),
  ('COc1cc(O)c(C(=O)/C=C/c2ccc(OC)c(OCc3cn(-c4ccc(F)c(Cl)c4)nn3)c2)c(OC)c1', 'µg/mL', '>', 100),
  ('COc1cc(OC)c2c(=O)cc(-c3ccc(OCc4cn(-c5ccccc5Cl)nn4)c(OCc4cn(-c5ccccc5Cl)nn4)c3)oc2c1', 'µg/mL', '>', 100),
  ('COc1cc(OC)c2c(=O)cc(-c3ccc(OCc4cn(-c5ccc(Cl)cc5)nn4)c(OC)c3)oc2c1', 'µg/mL', '>', 100),
  ('COc1cc(O)c(C(=O)/C=C/c2ccc(OC)c(OCc3cn(-c4ccccc4Cl)nn3)c2)c(OC)c1', 'µg/mL', '=', 100),
  ('COc1cc(O)c(C(=O)/C=C/c2ccc(OCc3cn(-c4ccc(F)c(Cl)c4)nn3)c(OCc3cn(-c4ccc(F)c(Cl)c4)nn3)c2)c(OC)c1', 'µg/mL', '>', 100),
  ('COc1cc(OC)c2c(=O)cc(-c3ccc(OCc4cn(-c5ccc(F)cc5F)nn4)c(OC)c3)oc2c1', 'µg/mL', '>', 100),
  ('COc1cc(OC)c2c(=O)cc(-c3ccc(OCc4cn(-c5ccc(F)cc5Cl)nn4)c(OC)c3)oc2c1', 'µg/mL', '>', 100),
  ('COc1cc(OC)c2c(=O)cc(-c3ccc(OCc4cn(-c5ccccc5Cl)nn4)c(OC)c3)oc2c1', 'µg/mL', '=', 50),
  ('COc1cc(O)c(C(=O)/C=C/c2ccc(OCc3cn(-c4ccc(F)cc4F)nn3)c(OCc3cn(-c4ccc(F)cc4F)nn3)c2)c(OC)c1', 'µg/mL', '=', 12.5),
  ('COc1cc(O)c(C(=O)/C=C/c2ccc(OCc3cn(-c4ccc(Cl)cc4)nn3)c(OCc3cn(-c4ccc(Cl)cc4)nn3)c2)c(OC)c1', 'µg/mL', '>', 100),
  ('COc1cc(O)c(C(=O)/C=C/c2ccc(OCc3cn(-c4ccccc4Cl)nn3)c(OC)c2)c(OC)c1', 'µg/mL', '=', 12.5),
  ('COc1cc(O)c(C(=O)/C=C/c2ccc(OCc3cn(-c4ccc(F)c(Cl)c4)nn3)c(OC)c2)c(OC)c1', 'µg/mL', '=', 100),
  ('COc1cc(OC)c2c(=O)cc(-c3ccc(OCc4cn(-c5ccc(F)c(Cl)c5)nn4)c(OCc4cn(-c5ccc(F)c(Cl)c5)nn4)c3)oc2c1', 'µg/mL', '=', 100),
  ('COc1cc(OC)c2c(=O)cc(-c3ccc(OCc4cn(-c5ccc(F)cc5Cl)nn4)c(OCc4cn(-c5ccc(F)cc5Cl)nn4)c3)oc2c1', 'µg/mL', '>', 100),
  ('COc1cc(O)c(C(=O)/C=C/c2ccc(OCc3cn(-c4ccc(F)cc4Cl)nn3)c(OCc3cn(-c4ccc(F)cc4Cl)nn3)c2)c(OC)c1', 'µg/mL', '=', 100),
  ('COc1cc(O)c(C(=O)/C=C/c2ccc(OC)c(OCc3cn(-c4ccc(Cl)cc4)nn3)c2)c(OC)c1', 'µg/mL', '>', 100),
  ('COc1cc(OC)c2c(=O)cc(-c3ccc(OCc4cn(-c5ccc(F)c(Cl)c5)nn4)c(OC)c3)oc2c1', 'µg/mL', '>', 100),
  ('COc1cc(OC)c2c(=O)cc(-c3ccc(OCc4cn(-c5ccc(Cl)cc5)nn4)c(OCc4cn(-c5ccc(Cl)cc5)nn4)c3)oc2c1', 'µg/mL', '=', 12.5),
  ('COc1cc(OC)c2c(=O)cc(-c3ccc(OCc4cn(-c5ccc(F)cc5F)nn4)c(OCc4cn(-c5ccc(F)cc5F)nn4)c3)oc2c1', 'µg/mL', '>', 100),
  ('COc1cc(O)c(C(=O)/C=C/c2ccc(OCc3cn(-c4ccc(F)cc4Cl)nn3)c(OC)c2)c(OC)c1', 'µg/mL', '=', 12.5),
  ('COc1cc(O)c(C(=O)/C=C/c2ccc(OCc3cn(-c4ccccc4Cl)nn3)c(OCc3cn(-c4ccccc4Cl)nn3)c2)c(OC)c1', 'µg/mL', '>', 100),
  ('COc1cc(O)c(C(=O)/C=C/c2ccc(OC)c(OCc3cn(-c4ccc(F)cc4Cl)nn3)c2)c(OC)c1', 'µg/mL', '>', 100);

Origin of measurements: ChEMBL document CHEMBL3779815
